- Target of assay: IKZF2 (Homo sapiens (Human), UniProt Q96SW2+Q9UKS7)
- Sequence (Q9UKS7 whole entry): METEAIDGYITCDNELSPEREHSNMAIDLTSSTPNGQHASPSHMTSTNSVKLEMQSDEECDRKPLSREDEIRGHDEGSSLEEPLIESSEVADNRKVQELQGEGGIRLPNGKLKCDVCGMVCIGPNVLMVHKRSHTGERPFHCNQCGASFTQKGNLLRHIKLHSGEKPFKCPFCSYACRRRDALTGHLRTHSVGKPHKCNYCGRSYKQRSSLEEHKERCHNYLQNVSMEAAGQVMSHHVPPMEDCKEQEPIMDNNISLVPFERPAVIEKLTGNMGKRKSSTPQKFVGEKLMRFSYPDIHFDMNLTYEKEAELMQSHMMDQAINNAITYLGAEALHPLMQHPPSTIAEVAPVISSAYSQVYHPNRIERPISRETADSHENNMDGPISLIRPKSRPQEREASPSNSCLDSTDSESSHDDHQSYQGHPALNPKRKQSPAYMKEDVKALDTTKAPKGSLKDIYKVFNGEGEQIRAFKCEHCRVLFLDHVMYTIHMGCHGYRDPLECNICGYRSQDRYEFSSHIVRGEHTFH
- Sequence (Q96SW2 whole entry): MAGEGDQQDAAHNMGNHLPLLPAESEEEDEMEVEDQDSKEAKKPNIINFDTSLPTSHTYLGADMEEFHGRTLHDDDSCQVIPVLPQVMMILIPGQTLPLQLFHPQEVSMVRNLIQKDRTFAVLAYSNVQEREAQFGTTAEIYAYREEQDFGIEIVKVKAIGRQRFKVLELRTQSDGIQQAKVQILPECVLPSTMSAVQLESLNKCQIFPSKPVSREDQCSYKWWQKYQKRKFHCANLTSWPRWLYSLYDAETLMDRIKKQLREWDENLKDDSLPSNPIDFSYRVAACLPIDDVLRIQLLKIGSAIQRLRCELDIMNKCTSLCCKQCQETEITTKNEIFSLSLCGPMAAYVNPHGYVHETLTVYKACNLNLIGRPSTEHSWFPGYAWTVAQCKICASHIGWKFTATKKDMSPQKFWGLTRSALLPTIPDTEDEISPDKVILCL
- Sequence (Q16531 whole entry partner): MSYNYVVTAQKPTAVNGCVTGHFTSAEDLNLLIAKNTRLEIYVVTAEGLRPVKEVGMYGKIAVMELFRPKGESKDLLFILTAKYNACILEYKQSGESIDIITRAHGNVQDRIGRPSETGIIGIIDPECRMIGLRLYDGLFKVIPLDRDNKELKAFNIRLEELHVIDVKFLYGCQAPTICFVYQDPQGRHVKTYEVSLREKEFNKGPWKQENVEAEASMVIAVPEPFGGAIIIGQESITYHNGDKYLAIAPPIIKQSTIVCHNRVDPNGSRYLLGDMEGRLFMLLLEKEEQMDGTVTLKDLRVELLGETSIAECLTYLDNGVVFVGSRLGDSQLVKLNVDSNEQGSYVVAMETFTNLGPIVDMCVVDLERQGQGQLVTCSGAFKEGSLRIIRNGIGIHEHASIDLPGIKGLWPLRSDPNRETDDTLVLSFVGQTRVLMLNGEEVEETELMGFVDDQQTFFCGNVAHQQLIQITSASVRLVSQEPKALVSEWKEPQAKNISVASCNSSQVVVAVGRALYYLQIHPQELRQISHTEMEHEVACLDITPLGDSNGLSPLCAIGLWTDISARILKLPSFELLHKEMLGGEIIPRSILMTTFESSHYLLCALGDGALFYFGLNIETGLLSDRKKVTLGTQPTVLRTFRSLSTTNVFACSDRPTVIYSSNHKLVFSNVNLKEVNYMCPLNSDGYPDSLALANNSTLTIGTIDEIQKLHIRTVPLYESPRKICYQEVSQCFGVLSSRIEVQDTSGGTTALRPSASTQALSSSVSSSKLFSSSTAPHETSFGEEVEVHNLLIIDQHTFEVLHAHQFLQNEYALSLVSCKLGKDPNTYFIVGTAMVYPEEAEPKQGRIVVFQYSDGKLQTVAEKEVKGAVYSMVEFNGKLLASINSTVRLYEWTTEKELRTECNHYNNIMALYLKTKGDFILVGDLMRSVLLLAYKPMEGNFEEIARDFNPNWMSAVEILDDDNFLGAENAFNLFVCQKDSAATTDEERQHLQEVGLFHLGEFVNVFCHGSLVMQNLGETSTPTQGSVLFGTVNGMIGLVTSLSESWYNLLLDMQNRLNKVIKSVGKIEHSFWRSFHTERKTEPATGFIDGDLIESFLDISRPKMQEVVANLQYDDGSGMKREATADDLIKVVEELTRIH
- Assay details: IKZF2 HiBiT Assay (Jurkat-IKZF2-HiBiT cell line)
- Format: cell-based
- Test parameters: Jurkat-IKZF2-HiBiT cells, 24 hours; read-out: HiBit assay degradation analysis Dmax
Assay readout: Dmax

Which Dmax value belongs to O=C1CC[C@H](N2Cc3c(ccc4c3OCC43CCN(Cc4cccc(-c5ccn(C(F)F)n5)c4)CC3)C2=O)C(=O)N1 ?
60 to 80%

Please report the recorded Dmax for O=C1CCC(N2Cc3c(ccc4c3OCC43CCN(Cc4cnn(C5CCCCC5)c4)CC3)C2=O)C(=O)N1 (stereo not shown) .
< 40%

Can you look up the measured Dmax of COc1ncc(CN2CCC3(CC2)COc2c3ccc3c2CN(C2CCC(=O)NC2=O)C3=O)cn1 (stereo not shown) for me?
< 40%

# input compound: O=C1CCC(N2Cc3c(ccc4c3OCC43CCN(Cc4ccnc(Cl)c4)CC3)C2=O)C(=O)N1 (stereo not shown) ; wanted: its Dmax
< 40%

Any idea what Dmax was measured for O=C1CCC(N2Cc3c(ccc4c3OCC43CCN(Cc4cnn(CC(F)(F)F)c4)CC3)C2=O)C(=O)N1 (stereo not shown) ?
40 to 60%

State the recorded Dmax for this entry: O=C1CCC(N2Cc3c(ccc4c3OCC43CCN(Cc4cccc5ccncc45)CC3)C2=O)C(=O)N1 (stereo not shown)
60 to 80%

Given the entry N#Cc1cccc(CN2CCC3(CC2)COc2c3ccc3c2CN(C2CCC(=O)NC2=O)C3=O)c1 (stereo not shown) , report its measured Dmax.
40 to 60%

Data request, read-out Dmax, for O=C1CCC(N2Cc3c(ccc4c3OCC43CCN(Cc4cccc5c4NC(=O)C5)CC3)C2=O)C(=O)N1 (stereo not shown)
60 to 80%

What value of measured Dmax is listed for O=C1CCC(N2Cc3c(ccc4c3OCC43CCN(Cc4cccc5ccoc45)CC3)C2=O)C(=O)N1 (stereo not shown) ?
60 to 80%

Suppose we examine the compound O=C1CCC(N2Cc3c(ccc4c3OCC43CCN(Cc4ccc(Cl)cc4)CC3)C2=O)C(=O)N1 (stereo not shown) ; what Dmax value has been reported?
< 40%
